# assayed target: peroxidase-anti-peroxidase (PAP) immune complex (preformed immune complex of peroxidase and anti-peroxidase IgG)
# assay name: reverse ELISA, competition: pre-incubated with PAP, then FcγIIb-coated plate (competitor: FcγIIb); lower = more inhibition
Positions of bridges follow the written chain, without caps; N, C: chain ends. No end group written: not given here.
reported metric: OD 450 nm (OD)

                                     binder  measure_unit  result_number
0  RCARHLGELVWCT (disulfide 2-12 (inferred)) [… peptide (SEQ ID NO:5)]            OD           3.28
1  DCARHLGELVWCT (disulfide 2-12 (inferred)) [… peptide (SEQ ID NO:4)]            OD           1.95
2  PCARHLGELVWCT (disulfide 2-12 (inferred)) [… peptide (SEQ ID NO:41)]            OD           1.21
3  DCAAHLGELAACT (cyclized by a disulfide bond between the two cysteine residues) [… peptide (SEQ ID NO:40)]            OD           2.26
4  DCAWHLGELAACT (cyclized by a disulfide bond between the two cysteine residues) [… peptide (SEQ ID NO:42)]            OD           1.07
